- test-protocol: probe aXIP binding to arrayed compounds – biochemical, NeuroSMM set, 635/667 nm fluorescence, primary screen (AID 1119);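 further: probe is the protein aXip251-270 applied at 1 µg/mL to compound-printed slides; binding of probe to printed compounds measured as 667 nm fluorescence plus signal to noise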
- test-conditions: small-molecule microarray, higher = more signal, called active from +8 up or from −8 down
Below: a set of entries, each annotated with reported composite Z-score.
readout: composite Z-score

{"compound": "COC(=O)[C@]1(CCC(=O)OC(C)(C)C)N=C(c2ccc(OCCCO)cc2)O[C@@H]1c1ccccc1", "readout": "composite Z-score", "reading": 1.55}
{"compound": "COCCOC(=O)N1C(=O)[C@@]2(c3cc(C#CCCO)ccc31)[C@H](c1ccc(O)cc1)N1[C@H](c3ccccc3)[C@H](c3ccccc3)OC(=O)[C@H]1[C@@H]2C(=O)N1CCN(c2ncccn2)CC1", "readout": "composite Z-score", "reading": 0.982}
{"compound": "COCC(=C=CC[C@H](O)c1ccccc1OCCO)CCO", "readout": "composite Z-score", "reading": -0.325}
{"compound": "NCCCCCNC(=O)[C@H]1C[C@H]2C(=O)N3CCC[C@H]3C(=O)N2[C@H]1c1ccc(O)cc1", "readout": "composite Z-score", "reading": 1.56}
{"compound": "NC(=O)[C@@H]1[C@H]2C(=O)O[C@H](c3ccccc3)[C@H](c3ccccc3)N2[C@H](c2ccc(O)cc2)[C@@]12C(=O)Nc1ccc(C#CC3=CCCCC3)cc12", "readout": "composite Z-score", "reading": 1.1}
{"compound": "CC[C@@H]1C=C(C(=O)O)[C@H](c2ccc(C)cc2)N1S(=O)(=O)c1ccc(C)cc1", "readout": "composite Z-score", "reading": 0.827}
{"compound": "COC(=O)[C@@]1(CCC(=O)OC(C)(C)C)N=C(c2ccc(OCCCO)cc2)O[C@H]1c1ccccc1", "readout": "composite Z-score", "reading": 0.21}
{"compound": "[N-]=[N+]=Nc1ccccc1C[C@]1(C(=O)NCC(O)CO)N=C(c2ccc(OCCCO)cc2)O[C@H]1c1ccccc1 (stereo partly drawn)", "readout": "composite Z-score", "reading": 0.102}
{"compound": "COC(=O)[C@@]1(Cc2ccc(F)cc2)[C@H]2c3cc(C(=O)N(C)C)n(Cc4ccc(C)o4)c3C[C@H]2CN1C(=O)c1ccccc1", "readout": "composite Z-score", "reading": 0.444}
{"compound": "CCOC(=O)C1=C[C@@H](C(C)C)N(S(=O)(=O)c2ccc(C)cc2)[C@H]1c1ccccc1F", "readout": "composite Z-score", "reading": 0.594}
{"compound": "CCOC(=O)C[C@H]1[C@H](OC(=O)c2ccc(C(=O)c3ccccc3)cc2)[C@@H](NC(=O)c2ccccc2)c2cc(OCCCO)ccc2N1C(=O)c1ccccc1", "readout": "composite Z-score", "reading": 0.607}
{"compound": "COc1ccc(NN2C(C(O)c3ccc(N(C)C)cc3)C=CC3C(=O)N(C4CCCCC4)C(=O)C32)cc1 (stereo not drawn)", "readout": "composite Z-score", "reading": -0.247}
{"compound": "COC(=O)[C@]1(Cc2ccccc2)N=C(c2ccc(OCCCO)cc2)O[C@@H]1c1ccccc1N=[N+]=[N-]", "readout": "composite Z-score", "reading": -0.181}
{"compound": "COc1cc(CO)cc(I)c1O[C@H]1C=C(C(=O)NCCO)C[C@@H](N(C(=O)c2cc3ccccc3oc2=O)C2CCCCCC2)[C@@H]1O", "readout": "composite Z-score", "reading": -0.161}
{"compound": "COCCCNC(=O)[C@@H]1c2ccccc2C(=O)N(Cc2ccccc2OC)[C@H]1c1ccc(CO)cc1", "readout": "composite Z-score", "reading": 0.414}
{"compound": "CCN(CC)c1ccc(N2CC=CC34O[C@@H]5C=CCOC(=O)[C@@H]5[C@H]3C(=O)N(CCCCCCO)[C@@H]4C2=O)cc1 (stereo partly drawn)", "readout": "composite Z-score", "reading": 0.451}
{"compound": "COc1cc2c(cc1O)C(c1cccs1)N(Cc1cccc(OC(F)(F)F)c1)CC2 (stereo not drawn)", "readout": "composite Z-score", "reading": 0.934}
{"compound": "C=C(CCCC)/C(=C/C[C@H](OC(C)=O)c1ccccc1OCCO)c1cnc2ccccc2c1", "readout": "composite Z-score", "reading": 0.282}
{"compound": "COc1ccccc1CN1C(=O)c2ccccc2[C@@]2(Cc3ccccc3N(CCCN(C)C)C2=O)[C@@H]1c1ccc(CO)cc1", "readout": "composite Z-score", "reading": 0.027}
{"compound": "CCOC(=O)C1=CC[C@@H](c2ccc(C(F)(F)F)cc2)N(S(=O)(=O)c2ccc(C)cc2)[C@H]1c1ccccc1", "readout": "composite Z-score", "reading": 0.506}
{"compound": "COCCOC(=O)N1C(=O)[C@@]2(c3cc(C#CCCO)ccc31)[C@H](c1ccc(OCCO)cc1)N1[C@H](c3ccccc3)[C@H](c3ccccc3)OC(=O)[C@H]1[C@@H]2C(N)=O", "readout": "composite Z-score", "reading": 0.606}
{"compound": "COC(=O)c1c(CC[C@@H](CO)NC(=O)N[C@@H](Cc2ccccc2)Cn2cc(-c3ccccn3)nn2)oc(C(=O)N2CCOCC2)c1C(=O)OC", "readout": "composite Z-score", "reading": 0.255}
{"compound": "CN(C)CCCCCCNC(=O)[C@@H]1C[C@@H]2C(=O)N3CCC[C@H]3C(=O)N2[C@@H]1c1ccc(O)cc1", "readout": "composite Z-score", "reading": 2.74}

====

Below: a set of entries, each annotated with reported composite z-score.
- Tested on: Fibrinogen (Alexa647-labelled)
- test-protocol: Alexa647-fibrinogen binding to printed small molecules – biochemical, small-molecule microarray, 635/667 nm fluorescence, artefact control for SMM control-protein annotation, profiling panel (AID 1131);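 further: z-score merges 667 nm fluorescence with per-spot signal-to-noise over triplicate slides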
- test-conditions: fibrinogen-A647 binding fluorescence, higher = more signal
readout: composite z-score

{"molecule": "COCCOC(=O)N1C(=O)[C@@]2(c3cc(C#CC4(O)CCCCCC4)ccc31)[C@H](c1ccccc1OCCO)N1[C@H](c3ccccc3)[C@H](c3ccccc3)OC(=O)[C@H]1[C@@H]2C(=O)N1CCc2cc(OC)c(OC)cc2C1", "target-or-test-system": "Fibrinogen (Alexa647-labelled)", "reading": 0.895}
{"molecule": "[N-]=[N+]=Nc1ccccc1C[C@]1(C(=O)NCc2ccccc2)N=C(c2ccc(OCCCO)cc2)O[C@H]1c1ccccc1N=[N+]=[N-]", "target-or-test-system": "Fibrinogen (Alexa647-labelled)", "reading": 1}
{"molecule": "CCCCCCCCCCC(O)C1C=CC2C(=O)NC(=O)C2N1Nc1ccc(Cl)cc1Cl (centres undefined)", "target-or-test-system": "Fibrinogen (Alexa647-labelled)", "reading": 0.331}
{"molecule": "NC(=O)N1C(=O)C2C(C1=O)C1C=C(CCCO)C2C(C2CC2)N1Cc1cc2c(cc1Br)OCO2 (centres undefined)", "target-or-test-system": "Fibrinogen (Alexa647-labelled)", "reading": 0.928}
{"molecule": "COCC(=C=CC[C@H](O)c1cccc(OCCO)c1)CCO", "target-or-test-system": "Fibrinogen (Alexa647-labelled)", "reading": -0.535}
{"molecule": "[N-]=[N+]=Nc1ccccc1[C@H]1OC(c2ccc(OCCCO)cc2)=N[C@@]1(CCS(=O)(=O)c1ccccc1)C(=O)NCc1ccccc1", "target-or-test-system": "Fibrinogen (Alexa647-labelled)", "reading": 1.04}
{"molecule": "C[N+](C)(C)CCCCCCNC(=O)[C@H]1C[C@H]2C(=O)N[C@@H](Cc3ccccc3)C(=O)N2[C@H]1c1cccc(OCCO)c1", "target-or-test-system": "Fibrinogen (Alexa647-labelled)", "reading": 0.22}
{"molecule": "[N-]=[N+]=Nc1ccccc1C[C@@]1(C(=O)N2CCCCC2)N=C(c2ccc(OCCCO)cc2)O[C@@H]1c1ccccc1", "target-or-test-system": "Fibrinogen (Alexa647-labelled)", "reading": 0.95}
{"molecule": "CCCCC(=C=CC[C@H](O)c1cccc(OCCO)c1)C[C@H](O)c1ccccn1", "target-or-test-system": "Fibrinogen (Alexa647-labelled)", "reading": 0.538}
{"molecule": "Cc1c(NC(=O)/C(C#N)=C/c2cccc([N+](=O)[O-])c2)c(=O)n(-c2ccccc2)n1C", "target-or-test-system": "Fibrinogen (Alexa647-labelled)", "reading": 0.985}
{"molecule": "C=CCNC(=O)[C@H]1[C@@H]2C(=O)O[C@@H](c3ccccc3)[C@@H](c3ccccc3)N2[C@@H](c2ccc(O)cc2)[C@]12C(=O)Nc1ccc(C#CCCO)cc12", "target-or-test-system": "Fibrinogen (Alexa647-labelled)", "reading": -0.297}
{"molecule": "CCOC(=O)C1=CCC(c2ccc(F)cc2)N(S(=O)(=O)c2ccc(C)cc2)C1 (centres undefined)", "target-or-test-system": "Fibrinogen (Alexa647-labelled)", "reading": 0.265}
{"molecule": "O=C1O[C@H](c2ccccc2)[C@H](c2ccccc2)N2[C@H]1[C@@H](C(=O)NC[C@H](O)c1ccccc1)[C@]1(C(=O)Nc3ccccc31)[C@H]2c1ccc(O)cc1", "target-or-test-system": "Fibrinogen (Alexa647-labelled)", "reading": 0.141}
{"molecule": "COCCCNC(=O)[C@@H]1c2ccccc2C(=O)N(Cc2ccccc2)[C@H]1c1ccc(CO)cc1", "target-or-test-system": "Fibrinogen (Alexa647-labelled)", "reading": 0.185}
